# Tested on: MS2 coat protein
# PROCEDURE SUMMARY: apparent KD of MS2 coat protein; higher = weaker reporter binding
# SETTINGS: Eterna round: R107; input ligand: arginine 13.2 mM
Please use true (1) whenever apparent KD of MS2 coat protein is not below 20 nM, and false (0) whenever it is.

Identify whether the reported apparent KD of MS2 coat protein of the following sequence is 20 nM or greater: UCGGGCAGAGCGGCCGCCACUGUUUGGCGUGCGGAUGACGGAACAUGAGGAUCACCCAUGUUGUUUAGGACCGGGCUUGCGGCGU [ipimullin] false (0)

Identify whether the reported apparent KD of MS2 coat protein of the following sequence is 20 nM or greater: CGAGUGAGUUCAAUCGAAUAACGGUUUUCGCGAGGACCGGUACGGCCGCCACUCGUGUGAUAUCACACAUGAGGAUCACCCAUGU [3'end-1] true (1)

Identify whether the reported apparent KD of MS2 coat protein of the following sequence is 20 nM or greater: CACGCGGUGUCGGCCGCCACUGACGCCCGUGGGUCUCCUGACAUGAGGAUCACCCAUGUACAGCGCAGGACCGGGACACCAACAA [Are] true (1)

Identify whether the reported apparent KD of MS2 coat protein of the following sequence is 20 nM or greater: CGAUACAAAUAAAGCGUUCGUCCGCCAGAUACCAGAUUCAUUUCCAUCCCUUGGCAGCUGUCGACAUGAGGAUCACCCAUGUUUG [theeternabot_exclusion_MS2_Theo_A_41] false (0)

Identify whether the reported apparent KD of MS2 coat protein of the following sequence is 20 nM or greater: UCACGACGCAUGGAUACCAGCGACAUGAGGAUCACCCAUGUAUGAGGAUCAGCCAUGUUAUGCCCUUGGCAGCCACGAAGGUCAU [KNKMULLIN] false (0)

Identify whether the reported apparent KD of MS2 coat protein of the following sequence is 20 nM or greater: ACGUCACGUUUACUCGUGGUUUCGAUCGAUACCAGUAGCGAGAGUUACCCUUGGCAGCGACAUGAGGAUCACCCAUGUACGAAGA [XTheo A #25] false (0)

Identify whether the reported apparent KD of MS2 coat protein of the following sequence is 20 nM or greater: AGAAUAACACAUGAGGAUCACCCAUGUGAUACCAGCUAGGAAACUAGCCCUUGGCAGCACAUAAGGUGAUCCAGCUGCCAAGAAU [(M1)-(M2)-(T1)-(T2)-(M)'-(T)'_Design1_2/19/17] true (1)

Identify whether the reported apparent KD of MS2 coat protein of the following sequence is 20 nM or greater: GUACAUGAGGAUCACCCAUGUAUAGUUGAAGGAGCGACCAGAGGGUCAGGUAGGUCGCAGCACAUGGUGAAAACCCGUGUAUGCC [#1 Exclusion - Arginine A Attempt #21 (Inspired by Pi)] true (1)

Identify whether the reported apparent KD of MS2 coat protein of the following sequence is 20 nM or greater: UACCGAUGAAGAAGGAGCGUGCGUGGUUCACAUGAGGAUCACCCAUGUGCUUUAUACUAGGCACAGGUAGGUCGCUUCAUCGGUA [SSAB NP+V+V2 #22] true (1)

Identify whether the reported apparent KD of MS2 coat protein of the following sequence is 20 nM or greater: UAACAUGAGGAUCACCCAUGUUUGAAGAAACGAGGACCGGUACGGCCGCCACUCGACGAGUGGAUGAAUAGUGGGCUUGUGUGCU [Same State Trp A GF10] false (0)

Identify whether the reported apparent KD of MS2 coat protein of the following sequence is 20 nM or greater: CCGUCACAUGAGGAUCACCCAUGUGCGGAAGGAGCGGACGAAAGUCCAGGUAGGUCGCCGUAUAGCCAAUGACCAGCAGUGUCGG [XARG-A 21] false (0)

Identify whether the reported apparent KD of MS2 coat protein of the following sequence is 20 nM or greater: GUCUGUGUCUGAAGGAGCGACAUGAGGAUCACCCAUGUCUCCCGUUAUGGGAGUUCCUUAGGUCAGGUAGGUCGCAGACACAGAC [#1 Exclusion - Arginine B Attempt #27 (Inspired by Omei)] true (1)

Identify whether the reported apparent KD of MS2 coat protein of the following sequence is 20 nM or greater: UUAUUUAUAAUGGAUACCAGUCGUAUGGCCCGGAAUCCUGACAUGAGGAUCACCCAUGUCGACCCUUGGCAGCUGUUAUGGGUUU [XTheo B #22] false (0)

Identify whether the reported apparent KD of MS2 coat protein of the following sequence is 20 nM or greater: ACAUGAGGAUCACCCAUGUAAAUAGCGGAAGGAGCGUGCAAAAGCACAGGUAGGUCGCCGAUAUAAUAAUUGGGUAAUAUAUUAU [#27 Exclusion - Arginine A] false (0)

Identify whether the reported apparent KD of MS2 coat protein of the following sequence is 20 nM or greater: AUCUGUAUGUUUUCGUGUUUUAUUACAGAUACCAGACUAUACGUUGUCCCUUGGCAGCUGGAUGACAUGAGGAUCACCCAUGUUG [#27 Exclusion-TheophyllineA] true (1)

Identify whether the reported apparent KD of MS2 coat protein of the following sequence is 20 nM or greater: AGAGUCAGACAAAAGUCUGGCUCAGCCGAAGGAGCGUCCGAAAGGACAGGUAGGUCGCGGUUACAUGAGGAUCACCCAUGUUCCU [ArgAS 7 #OpenEnded] true (1)

Identify whether the reported apparent KD of MS2 coat protein of the following sequence is 20 nM or greater: ACAUCCAGAUUAAUCGUGGGCAUACUCGAUACCAGUAUUUUAACCUACCCUUGGCAGCGACAUGAGGAUCACCCAUGUGAGAUGA [XTheo A #10] true (1)

Identify whether the reported apparent KD of MS2 coat protein of the following sequence is 20 nM or greater: UGACAUUGCUCAGAUACCAGACGUGAGGAUCACCCACGUGCCAACAAGUACAUAAUAAAUGUCCCUUGGCAGCUGAGCAAUGUCU [TheoBX 17 #MS2Left #Theo2 #AlternativeMS2] false (0)

Identify whether the reported apparent KD of MS2 coat protein of the following sequence is 20 nM or greater: AUAACACAUGAGGAUCACCCAUGUAAGGAUACCAGUUUCUGAUUAAACCCUUGGCAGCCUAGAGAUAGUCAUGUAAUAACGGCGA [theeternabot_sameState_MS2_Theo_A_19] false (0)

Identify whether the reported apparent KD of MS2 coat protein of the following sequence is 20 nM or greater: AGUAAUCUAAGAGAUACCAGACGGUAUAUAACAUGAGGAUCACCCAUGUUUUGGGUGUACGUCCCUUGGCAGCUCAAAAUGAUAA [#06 Same State - Theophylline B] true (1)

Identify whether the reported apparent KD of MS2 coat protein of the following sequence is 20 nM or greater: UUGCCCAGUACGGCCGCCACUGUGUGCAGGGAACCCAGGUCCACAUGAGGAUCACCCAUGUACAGCAGGACCGGGUACUUGCAAU [Ininladia] false (0)

Identify whether the reported apparent KD of MS2 coat protein of the following sequence is 20 nM or greater: UUCUGGUCCCGUGAUACCAGAGACAUGAGGAUCACCCAUGUACAUGAGGAUCACCCAUGUUUCCCUUGGCAGCACUGUAGGGAGC [Exclusion Theophylline B GF 16] true (1)
